- Run description: Toxicity liver stage against HepG2, at 10uM
- Format: cell-based
- Parameters: test concentration 10 uM, cell line HepG2-A16-CD81EGFP
- Reported conditions: human, HepG2-A16-CD81EGFP cells; read-out: INHIBITION
Quick reference for cytotoxicity at 10 µM among some molecules
Record the value in %, omitting the unit from your answer.

Past entries and their recorded results:
{"Molecule": "CCc1cnc(NCc2nc(CSC)no2)nc1", "Unit tag": "%", "Recorded value": 7.15}
{"Molecule": "Cc1cnn(CC2CN(CC(=O)Nc3ccncc3)CCO2)c1 (centres undefined)", "Unit tag": "%", "Recorded value": -3.75}
{"Molecule": "CC(C)c1nc2c(n1C)CCN(CCS(=O)(=O)c1ccccc1)C2", "Unit tag": "%", "Recorded value": 5.11}
{"Molecule": "COc1cc(CO)ccc1OCc1nc(C2CC2)no1", "Unit tag": "%", "Recorded value": 6.37}
{"Molecule": "CCOCc1ccccc1NC(=O)NC1CCN(c2ccccc2)C1 (centres undefined)", "Unit tag": "%", "Recorded value": -6.31}

State, in one line, measured cytotoxicity at 10 µM of C=Cc1ccc(C(=O)N2CCCC(Nc3ccccc3)C2)cc1 (centres undefined) -9.01

Cited source: ChEMBL document CHEMBL4513216
